Assay: AUC in C57BL/6J mouse at 30 mg/kg, po by LC-MS/MS analysis
Type: ADME, organism-based
Details: in vivo

{"smiles.structure": "COC(=O)Nc1cc(-c2c(C3CC3)n[nH]c2C)cc2[nH]ncc12", "AUC": "14700 ng·h/mL"}

###

Test: Metabolic stability in pooled CD1 mouse liver microsomes assessed as parent compound remaining at 1 uM after 30 mins by LC-MS/MS analysis
Type: ADME, microsome
Conditions: read-out: Stability
readout.kind: remaining at 0.5 h, 1 µM (%)

{"smiles.structure": "COC(=O)Nc1cc(-c2c(C3CC3)n[nH]c2C)cc2[nH]ncc12", "recorded.measurement": 84}
